- MEASUREMENT TARGET: human recombinant HDAC 2 (Homo sapiens, UniProt Q92769)
- Sequence (Q92769 whole entry): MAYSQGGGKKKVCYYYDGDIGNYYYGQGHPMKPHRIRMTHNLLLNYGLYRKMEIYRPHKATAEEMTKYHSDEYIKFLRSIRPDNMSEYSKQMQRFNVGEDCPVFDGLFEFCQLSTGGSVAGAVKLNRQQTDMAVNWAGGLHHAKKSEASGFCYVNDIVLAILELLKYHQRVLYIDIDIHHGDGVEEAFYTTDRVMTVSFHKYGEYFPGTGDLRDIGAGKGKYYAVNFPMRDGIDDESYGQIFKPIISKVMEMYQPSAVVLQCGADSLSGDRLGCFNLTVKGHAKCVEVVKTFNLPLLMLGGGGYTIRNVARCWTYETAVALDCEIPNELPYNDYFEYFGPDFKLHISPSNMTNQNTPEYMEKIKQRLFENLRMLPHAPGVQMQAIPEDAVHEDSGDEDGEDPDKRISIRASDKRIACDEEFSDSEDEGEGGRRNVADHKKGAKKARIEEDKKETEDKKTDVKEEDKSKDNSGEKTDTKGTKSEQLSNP
- METHOD: HDAC inhibition assay (Fluor de Lys), HDAC2
- CONDITION DESCRIPTION: inhibitor-protein incubation 2 hours, reaction 1 h 30 min, 37° C.
This section presents compounds with their documented IC50 values.

{"columns": ["COMPOUND", "IC50"],
 "data": [
  ["O=C(O)C(CCCc1ccc(S(=O)(=O)Nc2ccccc2)cc1)CCc1ccccc1 (stereo not drawn)", "10 to 100 µM"],
  ["O=C(O)C(CCCc1cccc2ccccc12)CCc1ccccc1 (stereo not drawn)", "10 to 100 µM"]
]}

Now look at this entry.
Input: Which value of IC50 has been reported for Nc1ccc(CCC(CCCc2ccccc2)C(=O)O)cc1 (stereo not drawn) in the records?
Output: 100 to 1000 µM

The reported measurements were obtained from patent US20110105544A1.
